Item-by-item account of inhibition at 10 µM
- assayOverview: Cytotoxicity against human LNCAP cells assessed as cell viability inhibition at 10 uM after 72 hrs by Alamar blue assay
- Assay type: functional

Observe how each entry below is paired with its result.
CC(=O)OC[C@@]12[C@@H](OC(C)=O)CC[C@@H](C)[C@]13OC(C)(C)[C@H]([C@@H](OC(=O)c1ccccc1)[C@H]2OC(=O)c1ccccc1)[C@H]3OC(C)=O :: 21.2%
CC(=O)OC[C@@]12[C@@H](OC(C)=O)CC[C@@H](C)[C@]13OC(C)(C)[C@H]([C@@H](OC(=O)c1ccc(Br)cc1)[C@H]2OC(=O)c1ccccc1)[C@H]3OC(C)=O :: > 30%
CC(=O)O[C@H]1CC[C@@H](C)[C@]23OC(C)(C)[C@H](C[C@H](OC(=O)c4ccccc4)[C@]12C)[C@H]3OC(C)=O :: > 30%

Kindly review the next compound as well.
Request: Need inhibition at 10 µM of CC(=O)OC[C@@]12[C@@H](OC(C)=O)CC[C@@H](C)[C@]13OC(C)(C)[C@H]([C@@H](O)[C@@H]2OC(=O)c1ccccc1)[C@H]3OC(C)=O , thanks.
Response: > 30%

====

Item-by-item account of inhibition at 10 µM
- assayOverview: Cytotoxicity against human LNCAP cells assessed as cell viability inhibition at 10 uM after 72 hrs by Alamar blue assay
- Assay type: functional

Observe how each entry below is paired with its result.
CC(=O)O[C@H]1CC[C@@H](C)[C@]23OC(C)(C)[C@H]([C@@H](O)[C@@H](OC(=O)c4ccccc4)[C@]12C)[C@H]3OC(C)=O :: > 30%
COCC(=O)O[C@@H]1[C@@H]2[C@@H](OC(C)=O)[C@]3(OC2(C)C)[C@H](C)CC[C@H](OC(C)=O)[C@@]3(COC(C)=O)[C@@H]1OC(=O)c1ccccc1 :: > 30%
CC(=O)OC[C@@]12[C@@H](OC(C)=O)CC[C@@H](C)[C@]13OC(C)(C)[C@H]([C@@H](O)[C@H]2OC(=O)c1ccccc1)[C@H]3OC(C)=O :: > 30%
CC(=O)OC[C@@]12[C@@H](OC(C)=O)CC[C@@H](C)[C@]13OC(C)(C)[C@H]([C@@H](OC(C)=O)[C@H]2OC(=O)c1ccccc1)[C@H]3O :: > 30%
CC(=O)OC[C@@]12[C@@H](OC(C)=O)CC[C@@H](C)[C@]13OC(C)(C)[C@H]([C@@H](OC(=O)C(C)(C)C)[C@H]2OC(=O)c1ccccc1)[C@H]3OC(C)=O :: 25.6%

Request: Need inhibition at 10 µM of CC(=O)OC[C@@]12[C@@H](OC(C)=O)CC[C@@H](C)[C@]13OC(C)(C)[C@H]([C@@H](OC(C)=O)[C@H]2OC(=O)c1ccccc1)[C@H]3OC(C)=O , thanks.
Response: > 30%

====

- assayOverview: Cytotoxicity against human LNCAP cells assessed as cell viability inhibition at 10 uM after 72 hrs by Alamar blue assay
- Format: functional
metricName: inhibition at 10 µM

Observe how each entry below is paired with its result.
CC(=O)OC[C@@]12[C@@H](OC(C)=O)CC[C@@H](C)[C@]13OC(C)(C)[C@H](C[C@@H]2OC(=O)c1ccccc1)[C@H]3OC(C)=O :: > 30%
CC(=O)O[C@@H]1[C@@H]2[C@@H](OC(C)=O)[C@]3(OC2(C)C)[C@H](C)CC[C@H](OC(C)=O)[C@@]3(C)[C@@H]1OC(=O)c1ccccc1 :: 14.6%

Request: Need inhibition at 10 µM of CC(=O)OC[C@@]12[C@@H](OC(C)=O)CC[C@@H](C)[C@]13OC(C)(C)[C@H](C(=O)[C@H]2OC(=O)c1ccccc1)[C@H]3OC(C)=O , thanks.
Response: > 30%
